# Target Entity: UniProt P0DTD1
# Measurement Notes: Inhibition of SARS CoV-2 main protease at 50 uM using DABCYL-KTSAVLQSGFRKM-E(EDANS)-NH2 as substrate preincubated for 30 mins followed by substrate addition and measured after 20 mins relative to control
# Details: time 50.0 min
I would appreciate it if you labelled entries criterion met when inhibition is 60% or higher, otherwise criterion not met.

substance_smiles=O=C(Cn1c2ccccc2c(=O)c2ccccc21)N/N=C/c1ccc(-c2ccc([N+](=O)[O-])cc2Cl)o1 label_class="criterion not met"
substance_smiles=C=C(C)CNC(=S)Nc1c(C)n(C)n(-c2ccccc2)c1=O label_class="criterion not met"
substance_smiles=Cc1cc(-c2ccc(/C=N/NC(=O)Cn3nnnc3N)o2)c([N+](=O)[O-])cc1C label_class="criterion met"
substance_smiles=NC(=S)N/N=C/c1ccc(-c2ccc([N+](=O)[O-])cc2)o1 label_class="criterion met"
substance_smiles=CNC(=S)N/N=C/c1ccc(-c2cccc(C(=O)O)c2)o1 label_class="criterion not met"
substance_smiles=NC(=S)N/N=C/c1ccc(-c2ccc(C(=O)O)cc2F)o1 label_class="criterion met"
substance_smiles=Cc1cccc(NC(=O)CN2C(=O)N/C(=C\c3ccc(-c4cccc(C(=O)O)c4)o3)C2=O)c1 label_class="criterion not met"
substance_smiles=CC1=NN(c2cccc(C(=O)O)c2)C(=O)/C1=C\c1ccc(-c2cccc(C(=O)O)c2)o1 label_class="criterion not met"
substance_smiles=CCOC(=O)c1ccc(NC(=S)Nc2c(C)n(C)n(-c3ccccc3)c2=O)cc1 label_class="criterion not met"
substance_smiles=O=C(O)c1cccc(-c2ccc(/C=N/n3cnc4sc5c(c4c3=O)CCCC5)o2)c1 label_class="criterion not met"
substance_smiles=NC(=S)N/N=C/c1ccc(-c2ccc(Cl)c(Cl)c2)o1 label_class="criterion not met"
substance_smiles=Nc1nonc1-c1nc2ccccc2n1CC(=O)N/N=C/c1ccc(-c2cccc(C(=O)O)c2)o1 label_class="criterion met"
substance_smiles=O=C(COCc1ccccc1Cl)N/N=C/c1ccc(-c2ccc([N+](=O)[O-])cc2)o1 label_class="criterion not met"
substance_smiles=NC(=S)N/N=C/c1ccc(-c2ccc(Cl)c(C(=O)O)c2)o1 label_class="criterion met"
substance_smiles=O=C(Cn1c2ccccc2c(=O)c2ccccc21)N/N=C/c1ccc(-c2ccc(O)c(C(=O)O)c2)o1 label_class="criterion not met"
substance_smiles=Nc1nonc1-c1cc2ccccc2n1CC(=O)N/N=C/c1ccc(-c2cccc(C(=O)O)c2)o1 label_class="criterion not met"
substance_smiles=Cc1cc(-c2ccc(/C=N/NC(=O)Cn3c(-c4nonc4N)nc4ccccc43)o2)ccc1[N+](=O)[O-] label_class="criterion not met"
substance_smiles=CSC1=NSC2=NC(=O)/C(=C\c3ccc(-c4cccc(C(=O)O)c4)o3)C(=N)N12 label_class="criterion not met"
substance_smiles=Cc1c(/N=C/c2ccc(-c3cccc([N+](=O)[O-])c3)o2)c(=O)n(-c2ccccc2)n1C label_class="criterion not met"
substance_smiles=Cc1c(NC(=S)NC(=O)c2cccc(I)c2)c(=O)n(-c2ccccc2)n1C label_class="criterion not met"
substance_smiles=Cc1c(NC(=S)NCCCN(C)C)c(=O)n(-c2ccccc2)n1C label_class="criterion not met"
substance_smiles=Cc1cccc(C(=O)NC(=S)Nc2c(C)n(C)n(-c3ccccc3)c2=O)c1 label_class="criterion not met"
substance_smiles=Cc1c(NC(=S)NC(=O)c2ccncc2)c(=O)n(-c2ccccc2)n1C label_class="criterion not met"
substance_smiles=O=C(O)c1cccc(-c2ccc(/C=N/NC(=S)Nc3ccc(Cl)cc3)o2)c1 label_class="criterion not met"
substance_smiles=Cc1cc(C(=O)O)ccc1-c1ccc(/C=N/NC(=S)NCc2ccccc2)o1 label_class="criterion not met"
substance_smiles=NC(=S)N/N=C/c1ccc(-c2cccc([N+](=O)[O-])c2)o1 label_class="criterion met"
substance_smiles=O=[N+]([O-])c1ccc(-c2ccc(/C=N/c3cccc(-c4nc5ccccc5o4)c3)o2)cc1 label_class="criterion not met"
substance_smiles=NC(=S)N/N=C/c1cc(-c2ccc(C(=O)O)cc2)co1 label_class="criterion met"
substance_smiles=NC(=S)N/N=C/c1ccc(-c2ccc3cccnc3c2)o1 label_class="criterion met"
substance_smiles=NC(=S)N/N=C/c1ccc(-c2cnc3ccccc3c2)o1 label_class="criterion met"
substance_smiles=COCc1c(Br)c(C)nc(OCC(=O)N/N=C/c2ccc(-c3ccc(Cl)c(C(=O)O)c3)o2)c1C#N label_class="criterion not met"
substance_smiles=NC(=S)N/N=C/c1ccc(-c2ccc(C(=O)O)c(Cl)c2)o1 label_class="criterion met"
substance_smiles=COc1ccc(-c2ccc(/C=N/NC(N)=S)o2)cc1OC label_class="criterion met"
substance_smiles=NC(=S)N/N=C/c1ccc(-c2cc(C(=O)O)ccc2Cl)o1 label_class="criterion met"
substance_smiles=Cc1c(NC(=S)NCc2ccco2)c(=O)n(-c2ccccc2)n1C label_class="criterion not met"
substance_smiles=Cc1cccc(C)c1OCC(=O)N/N=C/c1ccc([N+](=O)[O-])o1 label_class="criterion not met"
substance_smiles=COc1ccc(-c2ccc(/C=N/NC(=O)Cn3c(-c4nonc4N)nc4ccccc43)o2)c([N+](=O)[O-])c1 label_class="criterion not met"
substance_smiles=C=CCNC(=S)N/N=C/c1ccc(-c2ccc([N+](=O)[O-])cc2)o1 label_class="criterion not met"
substance_smiles=NC(=O)c1ccc(-c2ccc(/C=N/NC(N)=S)o2)cc1 label_class="criterion met"
substance_smiles=NC(=S)N/N=C/c1ccc(-c2ccc(C(=O)O)cc2)cc1 label_class="criterion met"
substance_smiles=Cc1c(NC(=S)NC(=O)COc2ccccc2)c(=O)n(-c2ccccc2)n1C label_class="criterion not met"
